Test system: MDA-MB-468
Experimental details: NCI-60 single-dose screen
Type: cell-based
Test parameters: Homo sapiens, single dose 10 µM, '-' = no inhibition, read-out: % Growth Inhibition
Procedure: The National Cancer Institute’s Developmental Therapeutic Program (www.dtp.nci.nih.gov) has tested compounds 9–29 (except compounds 21 and 22) against 60 cancer cell lines from nine types (leukemia, lung, colon, CNS, melanoma, ovarian, renal, prostate, and breast cancer) at a single dose (10 μM) ([El-Sherief et al., 2018]). […]
Tick rule met if inhibition at 10 µM is 20% or greater. Tick rule not met if inhibition at 10 µM is less than 20%.

Test whether the compound COc1ccc(CSc2nc(-c3ccc(Cl)cc3)cc(-c3ccc(OC)c(OC)c3)n2)cc1 records inhibition at 10 µM of 20% or higher. rule met

Test whether the compound COc1ccc(CSc2nc(-c3ccc(Cl)cc3)cc(-c3ccc(OC)cc3)n2)cc1 records inhibition at 10 µM of 20% or higher. rule not met

Test whether the compound CCCSc1nc(-c2ccc(Cl)cc2)cc(-c2ccc(OC)cc2)n1 records inhibition at 10 µM of 20% or higher. rule not met

Test whether the compound COc1ccc(-c2cc(-c3ccc(Cl)cc3)nc(SCc3ccccc3)n2)cc1OC records inhibition at 10 µM of 20% or higher. rule not met

Test whether the compound COc1ccc(-c2cc(-c3ccc(Cl)cc3)nc(SC(C)C)n2)cc1OC records inhibition at 10 µM of 20% or higher. rule not met

Test whether the compound CCSc1nc(-c2ccc(Cl)cc2)cc(-c2ccc(OC)c(OC)c2)n1 records inhibition at 10 µM of 20% or higher. rule not met

Test whether the compound C=CCSc1nc(-c2ccc(Cl)cc2)cc(-c2ccc(OC)c(OC)c2)n1 records inhibition at 10 µM of 20% or higher. rule met

Test whether the compound C=CCSc1nc(-c2ccc(OC)cc2)cc(-c2cccc(OC)c2)n1 records inhibition at 10 µM of 20% or higher. rule not met

Test whether the compound COc1ccc(-c2cc(-c3ccc(Cl)cc3)nc(SC)n2)cc1 records inhibition at 10 µM of 20% or higher. rule met
